system: rice; experiment: Low temperature assay on rice seedlings; type: in vivo; details: 1 mg/l, 3 °C, 9 days
QUANTITY: Height (cm)
Form entry: value (cm) — number only.

Examples from the recorded data:
>  <COMPOUND>
CC(C)[C@H](C)[C@@H](O)[C@H](O)[C@@H](C)[C@H]1CCC2C3CC(=O)C4C[C@H](O)CC[C@]4(C)C3CC[C@@]21C (stereo partly drawn)

>  <NUMERIC_READOUT>
7.7

$$$$
>  <COMPOUND>
CC(C)[C@H](C)[C@@H](O)[C@H](O)[C@@H](C)[C@H]1CCC2C3COC(=O)C4C[C@H](O)[C@H](O)C[C@]4(C)C3CC[C@@]21C (stereo partly drawn)

>  <NUMERIC_READOUT>
7.5

$$$$

For rice, provide Height of C=C(C(C)C)[C@@H](O)[C@H](O)[C@@H](C)[C@H]1CCC2C3COC(=O)C4C[C@H](O)[C@H](O)C[C@]4(C)C3CC[C@@]21C (stereo partly drawn) please. 7.7
